All values here come from patent US11744824B2.

Assignment: determine reported pIC50 for the given molecules.
molecular target: GST-tagged recombinant human RIP2 (Homo sapiens (Human), UniProt O43353); experiment: RIP2 Kinase Assay (ADP-Glo); conditions: in vitro kinase activity, ATP 25 μM
Sequence (O43353 whole entry): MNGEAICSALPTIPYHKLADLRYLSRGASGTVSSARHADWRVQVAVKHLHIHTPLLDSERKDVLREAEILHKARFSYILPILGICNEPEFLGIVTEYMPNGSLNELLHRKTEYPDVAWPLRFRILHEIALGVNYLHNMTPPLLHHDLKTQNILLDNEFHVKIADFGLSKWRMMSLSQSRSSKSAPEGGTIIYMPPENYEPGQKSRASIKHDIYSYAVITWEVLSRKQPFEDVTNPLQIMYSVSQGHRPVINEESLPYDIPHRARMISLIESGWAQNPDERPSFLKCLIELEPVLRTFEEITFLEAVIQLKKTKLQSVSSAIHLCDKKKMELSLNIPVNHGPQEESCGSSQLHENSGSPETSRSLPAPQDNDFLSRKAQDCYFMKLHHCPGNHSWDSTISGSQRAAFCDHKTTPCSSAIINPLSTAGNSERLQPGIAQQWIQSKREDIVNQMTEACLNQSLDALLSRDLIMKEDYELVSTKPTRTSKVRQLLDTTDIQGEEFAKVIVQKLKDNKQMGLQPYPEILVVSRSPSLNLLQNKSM
pIC50: −log10 of the molar value.

Problem: # pIC50 lookup, item Nc1nc2ccc(-c3ccc4[nH]cnc4c3)cn2c1C(=O)[C@@H]1C[C@@H]1F
Result: 7.00 to 9.00

Problem: GET /values?readout=pIC50&item= Nc1nc2ccc(-c3c[nH]c4ncccc34)cn2c1C(=O)[C@@H]1C[C@@H]1F
Result: 7.00 to 9.00

Problem: Given Nc1nc2ccc(-c3cncs3)cn2c1C(=O)[C@@H]1C[C@@H]1F , state its recorded pIC50.
Result: < 6.00

Problem: So what does the record say about pIC50 for Nc1nc2ccc(-c3ccc4[nH]ccc4c3)cn2c1C(=O)c1ccccn1 ?
Result: 7.00 to 9.00

Problem: Which pIC50 value belongs to C=Cc1c(F)cccc1-c1ccc2nc(N)c(C(=O)[C@@H]3C[C@@H]3F)n2c1 ?
Result: 7.00 to 9.00

Problem: // query pIC50 value for entry Cc1c(F)cccc1-c1ccc2nc(N)c(C(=O)C3CC(F)(F)C3)n2c1
Result: 6.00 to 6.30

Problem: Data request, read-out pIC50, for CC(=O)Nc1nc2ccc(-c3cccc(F)c3C)cn2c1C(=O)[C@@H]1C[C@@H]1F
Result: 6.30 to 7.00

Problem: Fill in the blank: the reported pIC50 of CNCCNc1nc2ccc(-c3cccc(F)c3C)cn2c1C(=O)[C@@H]1C[C@@H]1F is ____.
Result: < 6.00

Problem: Would you mind telling me what pIC50 value was observed for Nc1nc2ccc(Br)cn2c1C(=O)C1CC1 ?
Result: < 6.00

Problem: Any idea what pIC50 was measured for Nc1nc2ccc(-c3cnc4[nH]ccc4c3Cl)cn2c1C(=O)[C@@H]1C[C@@H]1F ?
Result: 7.00 to 9.00

Problem: Bench note: what pIC50 did Cc1c(F)cc2[nH]ncc2c1-c1ccc2nc(N)c(C(=O)[C@@H]3C[C@@H]3F)n2c1 show?
Result: 7.00 to 9.00

Problem: So what's the measured pIC50 for this one? Nc1nc2ccc(Br)cn2c1C(=O)[C@@H]1C[C@@H]1F
Result: < 6.00

Problem: Requested read-out: pIC50. Entry: Cc1c(F)cccc1-c1ccc2nc(N)c(C(=O)[C@H]3C[C@@H]3F)n2c1
Result: 6.30 to 7.00

Problem: Return reported pIC50; argument: CC(=O)NNC(=O)c1c(N)nc2ccc(-c3cccc(F)c3C)cn12
Result: < 6.00

Problem: Entry Nc1nc2ccc(-c3cnc4[nH]ccc4c3Cl)cn2c1C(=O)C1CNC1 : reported pIC50 = ?
Result: 7.00 to 9.00

Problem: Would you kindly share the measured pIC50 for Cc1c(F)cccc1-c1cc(F)c2nc(N)c(C(=O)[C@@H]3C[C@@H]3F)n2c1 ?
Result: 6.30 to 7.00

Problem: Record request: pIC50 value, item CN(C)c1c(F)c(Cl)c(-c2ccc3nc(N)c(C(=O)NC4CC4)n3c2)c2cn[nH]c12
Result: < 6.00

Problem: If you can, please state the reported pIC50 value of Cc1cc(F)ccc1-c1ccc2nc(N)c(C(=O)[C@@H]3C[C@@H]3F)n2c1 .
Result: 6.30 to 7.00

Problem: # lookup: pIC50 of Cc1ccc(C)c(-c2ccc3nc(N)c(C(=O)[C@@H]4C[C@@H]4F)n3c2)c1
Result: 6.30 to 7.00

Problem: I'd like to know its pIC50. The molecule in question is CSc1c(F)c(C)c(-c2ccc3nc(N)c(C(=O)[C@@H]4C[C@@H]4F)n3c2)c2cn[nH]c12
Result: 6.30 to 7.00

Problem: Fill in the blank: the reported pIC50 of Cc1c(F)cccc1-c1ccn2nc(N)c(C(=O)C3CC3)c2c1 is ____.
Result: 7.00 to 9.00

Problem: Sample Nc1nc2ccc(-c3cnc4[nH]ccc4c3)cn2c1C(=O)[C@@H]1C[C@@H]1F — what was its pIC50?
Result: 7.00 to 9.00

Problem: Endpoint output: pIC50 of Nc1nc2ccc(-c3cncc4ccccc34)cn2c1C(=O)[C@@H]1C[C@@H]1F . Value?
Result: 7.00 to 9.00

Problem: For the molecule shown here, CC(=O)c1ccc(-c2ccc3nc(N)c(C(=O)[C@@H]4C[C@@H]4F)n3c2)c(C)c1 , give the reported pIC50.
Result: < 6.00

Problem: Look up pIC50: Nc1nc2ccc(-c3cc(F)cc4[nH]ccc34)cn2c1C(=O)[C@@H]1C[C@@H]1F
Result: 7.00 to 9.00

Problem: Look up pIC50 for this molecule: Cc1c(-c2ccc3nc(N)c(C(=O)[C@@H]4C[C@@H]4F)n3c2)cc(F)cc1N(C)C
Result: 6.30 to 7.00

Problem: Fill in: pIC50 of CN(C)c1c(F)c(Cl)c(-c2ccc3nc(N)c(C(=O)[C@@H]4C[C@@H]4F)n3c2)c2cn[nH]c12 is ___
Result: < 6.00

Problem: # get_value(readout='pIC50', item= Nc1nc2ccc(-c3cccc4cc[nH]c34)cn2c1C(=O)[C@@H]1C[C@@H]1F )
Result: 7.00 to 9.00

Problem: I am curious: what pIC50 value has been reported for Nc1nc2ccc(-c3cnc4[nH]ccc4c3Cl)cn2c1C(=O)c1ccccn1 ?
Result: 7.00 to 9.00

Problem: Query: pIC50; subject: Nc1nc2ccc(-c3ccc4[nH]ncc4c3)cn2c1C(=O)[C@@H]1C[C@@H]1F
Result: 7.00 to 9.00

Problem: Which pIC50 is listed for Cc1ccc2[nH]ccc2c1-c1ccc2nc(N)c(C(=O)[C@@H]3C[C@@H]3F)n2c1 ?
Result: 7.00 to 9.00

Problem: Requested field: pIC50. Item: CN1CCN(c2ccc(-c3ccc4nc(N)c(C(=O)[C@@H]5C[C@@H]5F)n4c3)cc2)CC1
Result: 6.30 to 7.00

Problem: Please look up its pIC50: Nc1nc2ccc(-c3c[nH]c4ccc(Cl)cc34)cn2c1C(=O)[C@@H]1C[C@@H]1F
Result: 6.30 to 7.00

Problem: Query (molecule): Cc1ccncc1-c1ccc2nc(N)c(C(=O)C3CC3)n2c1 ; field requested: pIC50
Result: 6.30 to 7.00
